pIC50: −log10 of the molar value.
# merged literature set: pIC50 with UniProt P29597

In [3]: df
Out[3]:
                                   compound  recordedmetric     testvalue
0  CNC(=O)c1ccnc(-c2cnc3[nH]ccc3c2N[C@H]2C[C@@H](NS(=O)(=O)c3cc(C#N)ccn3)C2)c1           pIC50  7.00 to 8.00
1  CCCNc1nc(Nc2ccc3c(c2)NC[C@H](O)CO3)ncc1C(N)=O           pIC50        > 8.00
2  CCN(c1ncccc1CNc1nc(-c2cc(F)c(O)cc2CC(F)(F)F)cc2[nH]nc(C(=O)NC)c12)S(C)(=O)=O           pIC50          6.97
3  O=C1NCCCCOCc2cc(ccc2N2CCOCC2)Nc2nccc(n2)-c2ccc1cc2           pIC50  6.00 to 7.00
4  Cc1cnc(Nc2ccc(N3CCN(C)CC3)c(C(F)(F)F)c2)nc1N1CC2(C1)CC2(F)F           pIC50        > 7.00
5  Nc1cc2ccc1-c1ccnc(n1)Nc1ccc(OC3CCC3)c(c1)COCCCCNC2=O           pIC50  5.00 to 6.00

Q. Would you kindly share the measured pIC50 for COc1nccc(-c2cnc3[nH]ccc3c2N[C@@H]2CCCN(C(=O)CC#N)C2)n1 ?
A. 7.00 to 8.00

Q. Would you kindly share the measured pIC50 for CNC(=O)N[C@H]1CC[C@H](N(C)c2ncnc3[nH]ccc23)CC1 ?
A. 5.42

Q. Would you kindly share the measured pIC50 for C=CC(=O)Nc1cc(Nc2ncc(Cl)c(O[C@@H]3CO[C@H]4[C@@H]3OC[C@H]4OCC)n2)ccc1N(C)CCN(C)C ?
A. 5.78

----------
# merged literature set: pIC50 with Non-receptor tyrosine-protein kinase TYK2 (Homo sapiens)
pIC50: −log10 of the molar value.

Q. pIC50 of CCS(=O)(=O)NC(=O)[C@H]1C[C@H](NC(=O)c2nn(C)c3c2CN(c2ncnc4[nH]ccc24)CC3)C1 on Non-receptor tyrosine-protein kinase TYK2 (Homo sapiens)?
A. < 5.70

Q. pIC50 of CC(C)OC(=O)Cn1cc(Nc2ncc3ccn(C[C@@H](CCF)C(C)C)c3n2)cn1 on Non-receptor tyrosine-protein kinase TYK2 (Homo sapiens)?
A. > 7.00

Q. pIC50 of CCOC(=O)Cn1cc(Nc2ncc3ccn(C[C@H]4CCC[C@@H](OC)C4)c3n2)cn1 on Non-receptor tyrosine-protein kinase TYK2 (Homo sapiens)?
A. > 7.00

Q. pIC50 of CCC(CC)n1cc(-c2nc(-c3cnn(CC(=O)NC(C)C)c3)cn3nccc23)cn1 on Non-receptor tyrosine-protein kinase TYK2 (Homo sapiens)?
A. 7.00 to 8.00

----------
# merged literature set: pIC50 with Non-receptor tyrosine-protein kinase TYK2 (Homo sapiens, UniProt P29597)
pIC50: −log10 of the molar value.

These recorded examples may help you get a feel for the data.
>>> df
                                     smiles  recordedmetric  testvalue
0  C[C@H](NC(=O)c1cnn2ccc(N3CCC[C@@H]3c3cncc(F)c3)nc12)C1CC1           pIC50     < 6.00
1  CCOC(=O)Cn1cc(Nc2ncc3ccn(CC(C)(C)C)c3n2)cn1           pIC50     > 7.00
2  Cc1cc(Nc2nc(N[C@@H]3C[C@H]4CC[C@@H](C3)N4CCC#N)c3cc[nH]c3n2)n[nH]1           pIC50       8.02

Q. pIC50 of Cc1cnc2nc1NCCCCCCNC(=O)c1ccc(cc1F)-c1cnc(F)c(c1)N2 on Non-receptor tyrosine-protein kinase TYK2 (Homo sapiens, UniProt P29597)?
A. < 5.00
